Test system: Klebsiella pneumoniae
assay-summary: Antibacterial activity against Klebsiella pneumoniae by broth microdilution method
Type: functional
Recorded MIC for the following molecules
readout-kind: MIC

| molecule | readout-kind | observed |
| --- | --- | --- |
| CCOC(=O)Cc1csc(N/N=C2\CC(c3ccccc3)NC(c3ccccc3)C2C)n1 (stereo not drawn) | MIC | > 256 µg/mL |
| CCC1/C(=N/N=C2\NC(=O)CS2)CC(c2ccccc2)NC1c1ccccc1 (stereo not drawn) | MIC | > 256 µg/mL |
| CCOC(=O)Cc1csc(N/N=C2\CC(c3ccccc3)NC(c3ccccc3)C2CC)n1 (stereo not drawn) | MIC | > 256 µg/mL |
